B1: library; numbered along this chain (parent)
chain: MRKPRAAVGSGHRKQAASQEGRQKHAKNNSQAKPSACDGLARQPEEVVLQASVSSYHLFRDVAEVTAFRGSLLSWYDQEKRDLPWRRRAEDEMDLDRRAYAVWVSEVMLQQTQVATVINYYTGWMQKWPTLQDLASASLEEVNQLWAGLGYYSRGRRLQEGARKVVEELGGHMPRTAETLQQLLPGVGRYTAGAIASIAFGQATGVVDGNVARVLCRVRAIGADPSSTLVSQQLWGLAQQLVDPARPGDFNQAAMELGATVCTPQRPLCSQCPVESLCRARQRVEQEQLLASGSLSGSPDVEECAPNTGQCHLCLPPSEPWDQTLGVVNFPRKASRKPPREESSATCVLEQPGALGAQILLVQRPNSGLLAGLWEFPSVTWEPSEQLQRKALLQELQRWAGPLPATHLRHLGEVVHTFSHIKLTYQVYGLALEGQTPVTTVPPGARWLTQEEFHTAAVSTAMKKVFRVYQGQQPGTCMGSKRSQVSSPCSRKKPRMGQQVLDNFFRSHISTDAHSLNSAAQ

variants of: B1; assay: 8OG:A repair function score (normalized; synonymous = 0, nonsense = -1) (normalized log-likelihood score); higher = more repair activity (WT-like); settings: with 8OG:A DNA repair reporter (GFP) in HEK-293 MUTYH KO cells;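 also: cells sorted at 72 h after reporter transfection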
measured-attribute: 8OG:A repair function score

[
  {
    "variant-identifier": "Q484L",
    "numeric-value": 0.00769
  },
  {
    "variant-identifier": "A51Y",
    "numeric-value": 0.00468
  },
  {
    "variant-identifier": "Y469V",
    "numeric-value": -0.153
  },
  {
    "variant-identifier": "K422V",
    "numeric-value": -0.231
  },
  {
    "variant-identifier": "G123K",
    "numeric-value": 0.00116
  },
  {
    "variant-identifier": "E433W",
    "numeric-value": -0.393
  },
  {
    "variant-identifier": "M125I",
    "numeric-value": -0.0973
  },
  {
    "variant-identifier": "V328L",
    "numeric-value": 0.0391
  },
  {
    "variant-identifier": "L411W",
    "numeric-value": -0.28
  },
  {
    "variant-identifier": "T308C",
    "numeric-value": -0.00889
  },
  {
    "variant-identifier": "C311E",
    "numeric-value": -0.757
  },
  {
    "variant-identifier": "S378Q",
    "numeric-value": 0.0825
  },
  {
    "variant-identifier": "G39H",
    "numeric-value": -0.44
  },
  {
    "variant-identifier": "K422E",
    "numeric-value": -0.492
  },
  {
    "variant-identifier": "S483Y",
    "numeric-value": -0.0745
  },
  {
    "variant-identifier": "E287S",
    "numeric-value": 0.005
  },
  {
    "variant-identifier": "E167T",
    "numeric-value": 0.067
  },
  {
    "variant-identifier": "I195Q",
    "numeric-value": -1.01
  },
  {
    "variant-identifier": "S343R",
    "numeric-value": 0.0819
  },
  {
    "variant-identifier": "S197Y",
    "numeric-value": -0.898
  },
  {
    "variant-identifier": "L234T",
    "numeric-value": -0.464
  },
  {
    "variant-identifier": "E303T",
    "numeric-value": -0.0474
  },
  {
    "variant-identifier": "K164Q",
    "numeric-value": -0.101
  },
  {
    "variant-identifier": "H410W",
    "numeric-value": -0.367
  },
  {
    "variant-identifier": "E319F",
    "numeric-value": -0.211
  },
  {
    "variant-identifier": "P264N",
    "numeric-value": -0.0423
  },
  {
    "variant-identifier": "Q159F",
    "numeric-value": 0.0628
  },
  {
    "variant-identifier": "A238H",
    "numeric-value": -0.805
  },
  {
    "variant-identifier": "G326E",
    "numeric-value": -0.144
  },
  {
    "variant-identifier": "P299Q",
    "numeric-value": -0.00604
  },
  {
    "variant-identifier": "V142K",
    "numeric-value": -0.84
  },
  {
    "variant-identifier": "H410M",
    "numeric-value": 0.0995
  },
  {
    "variant-identifier": "Q472Y",
    "numeric-value": 0.00647
  },
  {
    "variant-identifier": "G123I",
    "numeric-value": 0.0985
  },
  {
    "variant-identifier": "R506Y",
    "numeric-value": 0.0145
  },
  {
    "variant-identifier": "A36L",
    "numeric-value": -0.0486
  },
  {
    "variant-identifier": "V166E",
    "numeric-value": -0.327
  },
  {
    "variant-identifier": "L241P",
    "numeric-value": -0.994
  },
  {
    "variant-identifier": "Y120V",
    "numeric-value": -0.224
  },
  {
    "variant-identifier": "A41L",
    "numeric-value": -0.0575
  },
  {
    "variant-identifier": "Q521E",
    "numeric-value": 0.00527
  },
  {
    "variant-identifier": "E395R",
    "numeric-value": -0.122
  },
  {
    "variant-identifier": "M496F",
    "numeric-value": 0.0105
  },
  {
    "variant-identifier": "F418N",
    "numeric-value": -0.355
  },
  {
    "variant-identifier": "Q78V",
    "numeric-value": 0.00652
  },
  {
    "variant-identifier": "R332T",
    "numeric-value": -0.246
  },
  {
    "variant-identifier": "D224W",
    "numeric-value": -0.942
  },
  {
    "variant-identifier": "L403E",
    "numeric-value": -0.596
  },
  {
    "variant-identifier": "A334C",
    "numeric-value": -0.0888
  },
  {
    "variant-identifier": "N119Q",
    "numeric-value": -0.00304
  },
  {
    "variant-identifier": "A391T",
    "numeric-value": -0.42
  },
  {
    "variant-identifier": "T112I",
    "numeric-value": -1.18
  },
  {
    "variant-identifier": "I221P",
    "numeric-value": -1.01
  },
  {
    "variant-identifier": "G150I",
    "numeric-value": -1.78
  },
  {
    "variant-identifier": "P437T",
    "numeric-value": -0.142
  },
  {
    "variant-identifier": "Q240N",
    "numeric-value": -0.999
  },
  {
    "variant-identifier": "Q232I",
    "numeric-value": -0.459
  },
  {
    "variant-identifier": "D61E",
    "numeric-value": -0.0493
  },
  {
    "variant-identifier": "L349H",
    "numeric-value": -0.39
  },
  {
    "variant-identifier": "T122F",
    "numeric-value": -0.0723
  },
  {
    "variant-identifier": "Y100A",
    "numeric-value": -1.95
  },
  {
    "variant-identifier": "L392Q",
    "numeric-value": -0.839
  },
  {
    "variant-identifier": "E167S",
    "numeric-value": -0.0659
  },
  {
    "variant-identifier": "K493D",
    "numeric-value": 0.0108
  },
  {
    "variant-identifier": "L134E",
    "numeric-value": -0.848
  },
  {
    "variant-identifier": "S367F",
    "numeric-value": -0.13
  },
  {
    "variant-identifier": "R87M",
    "numeric-value": -0.0864
  },
  {
    "variant-identifier": "N366C",
    "numeric-value": -0.137
  },
  {
    "variant-identifier": "R98L",
    "numeric-value": -0.107
  },
  {
    "variant-identifier": "A345Q",
    "numeric-value": -0.264
  },
  {
    "variant-identifier": "F68A",
    "numeric-value": -0.234
  },
  {
    "variant-identifier": "R281T",
    "numeric-value": -0.16
  },
  {
    "variant-identifier": "H407G",
    "numeric-value": -0.0586
  },
  {
    "variant-identifier": "L169A",
    "numeric-value": -0.177
  },
  {
    "variant-identifier": "V207S",
    "numeric-value": -0.875
  },
  {
    "variant-identifier": "K481M",
    "numeric-value": -0.00967
  },
  {
    "variant-identifier": "Q144W",
    "numeric-value": -0.282
  },
  {
    "variant-identifier": "P129S",
    "numeric-value": -0.231
  },
  {
    "variant-identifier": "T66G",
    "numeric-value": -0.0192
  },
  {
    "variant-identifier": "G161Y",
    "numeric-value": -1.04
  },
  {
    "variant-identifier": "P443W",
    "numeric-value": -0.309
  },
  {
    "variant-identifier": "T449K",
    "numeric-value": -0.144
  },
  {
    "variant-identifier": "G186V",
    "numeric-value": -0.852
  },
  {
    "variant-identifier": "F250S",
    "numeric-value": -0.385
  },
  {
    "variant-identifier": "C216N",
    "numeric-value": -0.84
  },
  {
    "variant-identifier": "T424C",
    "numeric-value": -0.0623
  },
  {
    "variant-identifier": "T324M",
    "numeric-value": 0.0106
  },
  {
    "variant-identifier": "L315G",
    "numeric-value": -0.123
  },
  {
    "variant-identifier": "L393Y",
    "numeric-value": -0.503
  },
  {
    "variant-identifier": "L355V",
    "numeric-value": -0.0573
  },
  {
    "variant-identifier": "T130W",
    "numeric-value": -0.522
  }
]
